Form field: absorption maximum (one value per entry).
experiment: solvent given as SMILES; conditions: in ClCCl
Could you give me the number in nm? Just the number is fine.

molecule	measurement_label	reading
CN(C)c1ccc(C2=Nc3sc4cc(C(F)(F)F)ccc4[n+]3[B-](F)(F)O2)cc1	absorption maximum	431

Enquiry: Look up and state reported absorption maximum for COc1ccc2cc(/C=C/c3nc(/C=C/c4ccc(N(c5ccccc5)c5ccccc5)cc4)cc(/C=C/c4ccc(N(c5ccccc5)c5ccccc5)cc4)n3)ccc2c1
Return: 424

Enquiry: State, in one line, measured absorption maximum of Cc1nc(-c2ccccc2)c2ccccn12
Return: 367

Enquiry: Identify absorption maximum associated with the molecule FC(F)(F)c1cc2n(n1)[B-]1(c3ccccc3Oc3ccccc31)[n+]1ccc3ccccc3c1-2
Return: 372

Enquiry: Consider the molecule CCOc1ccc(/C=C/c2nc(N3CCOCC3)c3c([n+]2[O-])CCCC3)cc1 . State its measured absorption maximum.
Return: 384

Enquiry: Return absorption maximum (reported value) for this molecule: O=P1(c2ccccc2)C2=C(c3ccccc31)S(=O)(=O)c1ccccc12 (configuration not stated)
Return: 386
